Cited source for all entries: patent US20120276102A1

# TARGET UNDER TEST: T1, murine IL-21R extracellular domain His-Flag fusion protein (murine, UniProt Q9JHX3 20-237)
# T1 construct: Biotinylated in the ELISAs; also called mIL-21R-H/F; murine IL-21R-H/F
# MEASUREMENT NOTES: competition ELISA; competitor plate-bound 18A5 IgG
VALUE KIND: IC50 (nM)
Numeric only. Scale: nM

As a guide, the following entries are already answered.
scFv L23 (scFv) scFv: QVQLQESGPGLVKTSETLSLTCAVSGYSISSGYYWGWIRQPPGKGLEWIGSISHTGNTYYNPPLKSRVTISVDTSKNQFSLKLSSVTAADTAVYYCARGGGISRPEYWGKGTLVTVSSGGGGSGGGGSGGGGSALSSELTQDPPVSVALGQTVTLTCQGDSLRTYYASWYQQKSGQAPILLLYGKHKRPSGIPDRFSGSTSGDTASLTITGAQAEDEADYYCSARSVRGNPHVLFGGGTQLTVL : 12
scFv L13 (scFv) scFv: QVQLQESGPGLVKTSETLSLTCAVSGYSISSGYYWGWIRQPPGKGLEWIGSISHTGNTYYNPPLKSRVTISVDTSKNQFSLKLSSVTAADTAVYYCARGGGISRPEYWGKGTLVTVSSGGGGSGGGGSGGGGSALSSELTQDPPVSVALGQTVTLTCQGDSLRTYYASWYQQKSGQAPILLLYGKHKRPSGIPDRFSGSTSGDTASLTITGAQAEDEADYYCVTRNRYGNPHVLFGGGTQLTVL : 7
scFv L17 (scFv) scFv: QVQLQESGPGLVKTSETLSLTCAVSGYSISSGYYWGWIRQPPGKGLEWIGSISHTGNTYYNPPLKSRVTISVDTSKNQFSLKLSSVTAADTAVYYCARGGGISRPEYWGKGTLVTVSSGGGGSGGGGSGGGGSALSSELTQDPPVSVALGQTVTLTCQGDSLRTYYASWYQQKSGQAPILLLYGKHKRPSGIPDRFSGSTSGDTASLTITGAQAEDEADYYCSTRSRKGNPHVLFGGGTQLTVL : 12

Consider now this further binder.
Ask: Identify measured IC50 corresponding to scFv L11 (scFv) scFv: QVQLQESGPGLVKTSETLSLTCAVSGYSISSGYYWGWIRQPPGKGLEWIGSISHTGNTYYNPPLKSRVTISVDTSKNQFSLKLSSVTAADTAVYYCARGGGISRPEYWGKGTLVTVSSGGGGSGGGGSGGGGSALSSELTQDPPVSVALGQTVTLTCQGDSLRTYYASWYQQKSGQAPILLLYGKHKRPSGIPDRFSGSTSGDTASLTITGAQAEDEADYYCSSRSRHGNPHVLFGGGTQLTVL
Result: 6
